Tested on: TTR
Assay explanation: TTR editing in primary human hepatocytes treated with LNP formulated Spy Cas9 mRNA (SEQ ID NO: 2) and sgRNAs, 12.5 ng mRNA
Type: cell-based
Particulars: LNP formulated Spy Cas9 mRNA (SEQ ID NO: 2) and sgRNA, 12.5 ng mRNA, 3.9 nM sgRNA, 72 hours
Strand notation (5' to 3'): a small letter for the sugar, then the base; units joined by * are phosphorothioate-linked, units joined directly phosphodiester-linked; [ ] holds rarer units or linkages, { } end groups; capitals alone tell only the bases. m = 2'-O-methyl; r = 2'-OH (RNA)
12.5 ng mRNA, 3.9 nM sgRNA, Avg % Edit values for the molecules below.
Measured parameter: 12.5 ng mRNA, 3.9 nM sgRNA, Avg % Edit (%)

G000568: TTR sgRNA modified sequence, Human, SEQ ID NO: 110; guide sequence of CR003391 (nucleic acid) guide: mG*mG*mC*rUrGrUrCrGrUrCrArCrCrArArUrCrCrCrArGrUrUrUrUrArGrAmGmCmUmAmGmAmAmAmUmAmGmCrArArGrUrUrArArArArUrArArGrGrCrUrArGrUrCrCrGrUrUrArUrCrAmAmCmUmUmGmAmAmAmAmAmGmUmGmGmCmAmCmCmGmAmGmUmCmGmGmUmGmCmU*mU*mU*mU ... 54.60
G000495: TTR sgRNA modified sequence, Human, SEQ ID NO: 102; guide sequence of CR003343 (nucleic acid) guide: mC*mA*mG*rArGrGrArCrArCrUrUrGrGrArUrUrCrArCrGrUrUrUrUrArGrAmGmCmUmAmGmAmAmAmUmAmGmCrArArGrUrUrArArArArUrArArGrGrCrUrArGrUrCrCrGrUrUrArUrCrAmAmCmUmUmGmAmAmAmAmAmGmUmGmGmCmAmCmCmGmAmGmUmCmGmGmUmGmCmU*mU*mU*mU ... 23.97
G000493: TTR sgRNA modified sequence, Human, SEQ ID NO: 100; guide sequence of CR003368 (nucleic acid) guide: mA*mA*mG*rUrGrCrCrUrUrCrCrArGrUrArArGrArUrUrGrUrUrUrUrArGrAmGmCmUmAmGmAmAmAmUmAmGmCrArArGrUrUrArArArArUrArArGrGrCrUrArGrUrCrCrGrUrUrArUrCrAmAmCmUmUmGmAmAmAmAmAmGmUmGmGmCmAmCmCmGmAmGmUmCmGmGmUmGmCmU*mU*mU*mU ... 7.33
G000501: TTR sgRNA modified sequence, Human, SEQ ID NO: 108; guide sequence of CR005300 (nucleic acid) guide: mU*mC*mA*rCrArGrArArArCrArCrUrCrArCrCrGrUrArGrUrUrUrUrArGrAmGmCmUmAmGmAmAmAmUmAmGmCrArArGrUrUrArArArArUrArArGrGrCrUrArGrUrCrCrGrUrUrArUrCrAmAmCmUmUmGmAmAmAmAmAmGmUmGmGmCmAmCmCmGmAmGmUmCmGmGmUmGmCmU*mU*mU*mU ... 32.30
G000481: TTR sgRNA modified sequence, Human, SEQ ID NO: 88; guide sequence of CR003345 (nucleic acid, sugars from the 5' end m3 r25 m12 r28 m32, backbone not given here; further chemistry not fully specified) guide: UCUAGAACUUUGACCAUCAGGUUUUAGAGCUAGAAAUAGCAAGUUAAAAUAAGGCUAGUCCGUUAUCAACUUGAAAAAGUGGCACCGAGUCGGUGCUUUU ... 24.37
G000489: TTR sgRNA modified sequence, Human, SEQ ID NO: 96; guide sequence of CR003344 (nucleic acid) guide: mU*mU*mU*rGrArCrCrArUrCrArGrArGrGrArCrArCrUrGrUrUrUrUrArGrAmGmCmUmAmGmAmAmAmUmAmGmCrArArGrUrUrArArArArUrArArGrGrCrUrArGrUrCrCrGrUrUrArUrCrAmAmCmUmUmGmAmAmAmAmAmGmUmGmGmCmAmCmCmGmAmGmUmCmGmGmUmGmCmU*mU*mU*mU ... 16.85
